- Test system: Neuronal acetylcholine receptor subunit alpha-7 (Mus musculus)
- Sequence (P49582 whole entry): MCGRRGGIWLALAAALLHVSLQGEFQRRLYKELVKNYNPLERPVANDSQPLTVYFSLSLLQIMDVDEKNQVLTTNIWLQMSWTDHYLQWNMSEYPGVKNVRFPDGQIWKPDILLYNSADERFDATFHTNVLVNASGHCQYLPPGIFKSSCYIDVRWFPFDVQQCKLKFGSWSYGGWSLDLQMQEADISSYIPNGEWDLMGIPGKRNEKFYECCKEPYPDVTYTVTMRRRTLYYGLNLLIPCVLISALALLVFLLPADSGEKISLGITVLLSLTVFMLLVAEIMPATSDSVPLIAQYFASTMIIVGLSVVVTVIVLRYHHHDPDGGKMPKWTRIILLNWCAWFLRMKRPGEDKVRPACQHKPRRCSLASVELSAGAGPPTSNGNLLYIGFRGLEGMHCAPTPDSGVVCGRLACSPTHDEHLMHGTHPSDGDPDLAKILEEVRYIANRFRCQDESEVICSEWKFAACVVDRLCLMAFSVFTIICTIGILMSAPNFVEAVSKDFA
pKi: −log10 of the molar value.

Query smiles: CN1CCC[C@H]1c1cccnc1
pKi: 6.61

----------
In this section we review reported pKi values for a set of compounds.
- Test system: Neuronal acetylcholine receptor subunit alpha-7 (Homo sapiens, UniProt P36544)
- Sequence (P36544 whole entry): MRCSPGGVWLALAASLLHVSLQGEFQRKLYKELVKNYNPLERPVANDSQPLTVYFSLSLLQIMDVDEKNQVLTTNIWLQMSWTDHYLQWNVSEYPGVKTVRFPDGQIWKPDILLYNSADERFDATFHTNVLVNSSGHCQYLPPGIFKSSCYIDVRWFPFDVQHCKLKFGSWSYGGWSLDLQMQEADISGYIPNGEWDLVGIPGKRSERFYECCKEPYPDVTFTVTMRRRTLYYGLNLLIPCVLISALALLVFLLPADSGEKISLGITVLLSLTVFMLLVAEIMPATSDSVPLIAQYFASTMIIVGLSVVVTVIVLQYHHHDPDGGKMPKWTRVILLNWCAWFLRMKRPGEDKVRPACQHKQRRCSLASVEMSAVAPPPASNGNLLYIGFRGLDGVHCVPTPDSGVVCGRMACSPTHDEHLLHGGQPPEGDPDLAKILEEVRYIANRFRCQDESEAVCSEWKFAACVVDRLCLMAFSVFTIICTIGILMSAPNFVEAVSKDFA
- Procedure text: Displacement of [3H]epibatidine from human alpha7 nAChR expressed in human HEK/RIC3 cells
pKi: −log10 of the molar value.

Compound: CC(C)Oc1cncc(C2=CC3CNCC(C2)C3)c1 (stereo not drawn)
pKi: 6.98
//
Compound: C1=C(c2cccnc2)C[C@H]2CNC[C@@H]1C2
pKi: 8.92
//
Compound: Clc1ccc(C2=CC3CNCC(C2)C3)nn1 (stereo not drawn)
pKi: 7.11

----------
- Test system: Neuronal acetylcholine receptor; alpha4/beta2 (Homo sapiens, UniProt P17787+P43681)
- Sequence (P17787 whole entry): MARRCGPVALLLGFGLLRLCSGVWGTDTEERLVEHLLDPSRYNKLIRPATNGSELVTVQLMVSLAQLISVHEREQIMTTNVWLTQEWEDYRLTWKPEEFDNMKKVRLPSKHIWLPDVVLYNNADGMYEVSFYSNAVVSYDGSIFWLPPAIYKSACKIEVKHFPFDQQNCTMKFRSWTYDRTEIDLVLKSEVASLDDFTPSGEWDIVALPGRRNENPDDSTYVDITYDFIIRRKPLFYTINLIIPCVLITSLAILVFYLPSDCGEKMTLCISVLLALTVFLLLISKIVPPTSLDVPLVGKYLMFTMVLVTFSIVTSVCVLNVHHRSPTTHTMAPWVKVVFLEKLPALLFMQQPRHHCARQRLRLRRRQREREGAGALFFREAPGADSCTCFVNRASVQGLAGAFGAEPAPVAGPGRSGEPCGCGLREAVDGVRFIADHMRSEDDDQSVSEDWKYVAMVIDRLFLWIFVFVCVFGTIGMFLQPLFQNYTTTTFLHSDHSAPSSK
- Sequence (P43681 whole entry): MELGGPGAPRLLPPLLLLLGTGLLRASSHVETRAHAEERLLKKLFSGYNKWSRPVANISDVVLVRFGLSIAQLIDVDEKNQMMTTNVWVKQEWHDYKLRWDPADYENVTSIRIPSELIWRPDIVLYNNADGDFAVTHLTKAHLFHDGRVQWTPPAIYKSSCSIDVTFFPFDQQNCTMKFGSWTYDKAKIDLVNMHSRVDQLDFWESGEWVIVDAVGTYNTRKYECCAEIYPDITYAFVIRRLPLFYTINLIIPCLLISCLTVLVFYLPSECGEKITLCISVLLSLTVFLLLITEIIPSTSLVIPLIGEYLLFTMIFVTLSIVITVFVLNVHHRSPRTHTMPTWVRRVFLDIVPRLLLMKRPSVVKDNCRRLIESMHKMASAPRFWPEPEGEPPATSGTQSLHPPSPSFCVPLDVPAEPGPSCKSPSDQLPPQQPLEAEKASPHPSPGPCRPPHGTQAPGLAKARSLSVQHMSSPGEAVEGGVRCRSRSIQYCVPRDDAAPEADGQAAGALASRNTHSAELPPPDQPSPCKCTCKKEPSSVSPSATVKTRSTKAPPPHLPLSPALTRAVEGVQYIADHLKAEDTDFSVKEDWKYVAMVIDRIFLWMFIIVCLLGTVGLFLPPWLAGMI
- Procedure text: Agonist activity at human alpha4beta2 nAChR expressed in human SH-EP1 cells by whole cell voltage clamp based electrophysiology method relative to 1 mM acetylcholine
- Type: functional
In this section we review reported %max values for a set of compounds.

Compound: C1=C(c2cncc(Oc3ccccc3)c2)CC2CNCC1C2 (configuration not stated)
Test system: Neuronal acetylcholine receptor; alpha4/beta2 (Homo sapiens, UniProt P17787+P43681)
%max, %: 9
--
Compound: C1=C(c2cccnc2)C[C@@H]2CNC[C@H]1C2
Test system: Neuronal acetylcholine receptor; alpha4/beta2 (Homo sapiens, UniProt P17787+P43681)
%max, %: 32
--
Compound: CN1C[C@@H]2C=C(c3cccnc3)C[C@@H](C2)C1
Test system: Neuronal acetylcholine receptor; alpha4/beta2 (Homo sapiens, UniProt P17787+P43681)
%max, %: 18
--
Compound: CC(C)Oc1cncc(C2=CC3CNCC(C2)C3)c1 (configuration not stated)
Test system: Neuronal acetylcholine receptor; alpha4/beta2 (Homo sapiens, UniProt P17787+P43681)
%max, %: 11
--
Compound: CN1C[C@H]2C=C(c3cccnc3)C[C@H](C2)C1
Test system: Neuronal acetylcholine receptor; alpha4/beta2 (Homo sapiens, UniProt P17787+P43681)
%max, %: 19
--
Compound: C1=C(c2cccnc2)C[C@H]2CNC[C@@H]1C2
Test system: Neuronal acetylcholine receptor; alpha4/beta2 (Homo sapiens, UniProt P17787+P43681)
%max, %: 40
--
Compound: CC(C)Oc1cncc(C2=CC3CC(C2)CN(C)C3)c1 (configuration not stated)
Test system: Neuronal acetylcholine receptor; alpha4/beta2 (Homo sapiens, UniProt P17787+P43681)
%max, %: 10

----------
- Test system: Neuronal acetylcholine receptor; alpha4/beta2 (Homo sapiens, UniProt P17787+P43681)
- Procedure text: Agonist activity at human alpha4beta2 nAChR high sensitivity form expressed in human SH-EP1 cells assessed as increase in calcium flux by FLIPR
- Format: functional, cell-based
pEC50: −log10 of the molar value.

Compound: Clc1ccc(C2=CC3CNCC(C2)C3)cn1 (configuration not stated)
Relation: =
pEC50: 7.27
--
Compound: C1=C(c2cccnc2)C[C@@H]2CNC[C@H]1C2
Relation: =
pEC50: 8.64
--
Compound: CN1C[C@@H]2C=C(c3cccnc3)C[C@@H](C2)C1
Relation: =
pEC50: 5.18
--
Compound: Fc1cncc(C2=C[C@@H]3CNC[C@H](C2)C3)c1
Relation: =
pEC50: 7.47
--
Compound: Clc1ccncc1C1=CC2CNCC(C1)C2 (configuration not stated)
Relation: =
pEC50: 5.70
--
Compound: CC(C)Oc1cncc(C2=CC3CC(C2)CN(C)C3)c1 (configuration not stated)
Relation: <
pEC50: 5.00
--
Compound: C1=C(c2cncc(Oc3ccccc3)c2)CC2CNCC1C2 (configuration not stated)
Relation: =
pEC50: 7.21
--
Compound: CN1C[C@H]2C=C(c3cccnc3)C[C@H](C2)C1
Relation: <
pEC50: 5.00
--
Compound: N#Cc1cncc(C2=C[C@H]3CNC[C@@H](C2)C3)c1
Relation: =
pEC50: 6.59
--
Compound: COc1ccc(C2=CC3CC(C2)CN(C)C3)cn1 (configuration not stated)
Relation: =
pEC50: 5.46
--
Compound: CN1CC2C=C(c3ccc(F)nc3)CC(C2)C1 (configuration not stated)
Relation: <
pEC50: 5.00
--
Compound: C1=C(c2cncc(-c3ccccc3)c2)CC2CNCC1C2 (configuration not stated)
Relation: =
pEC50: 7.07

----------
- Test system: Neuronal acetylcholine receptor subunit alpha-7 (Homo sapiens)
- Procedure text: Displacement of [3H]epibatidine from human alpha7 nAChR expressed in human HEK/RIC3 cells
pKi: −log10 of the molar value.
Quantity measured: pKi

Compound: C1=C(c2cncnc2)CC2CNCC1C2 (stereo unspecified)
Test system: Neuronal acetylcholine receptor subunit alpha-7 (Homo sapiens)
Data value: 7.72
--
Compound: Fc1cncc(C2=C[C@@H]3CNC[C@H](C2)C3)c1
Test system: Neuronal acetylcholine receptor subunit alpha-7 (Homo sapiens)
Data value: 8.80
--
Compound: CN1CC2C=C(c3cnccc3C#N)CC(C2)C1 (stereo unspecified)
Test system: Neuronal acetylcholine receptor subunit alpha-7 (Homo sapiens)
Data value: 5.31
--
Compound: N#Cc1ccncc1C1=CC2CNCC(C1)C2 (stereo unspecified)
Test system: Neuronal acetylcholine receptor subunit alpha-7 (Homo sapiens)
Data value: 6.48
--
Compound: C1=C(c2cccnc2)C[C@@H]2CNC[C@H]1C2
Test system: Neuronal acetylcholine receptor subunit alpha-7 (Homo sapiens)
Data value: 8.89
--
Compound: C1=C(c2cncc(-c3ccccc3)c2)CC2CNCC1C2 (stereo unspecified)
Test system: Neuronal acetylcholine receptor subunit alpha-7 (Homo sapiens)
Data value: 5.49

----------
In this section we review reported %max values for a set of compounds.
- Test system: Neuronal acetylcholine receptor; alpha3/beta4 (Homo sapiens, UniProt P30926+P32297)
- Procedure text: Agonist activity at human alpha3beta4 nAChR expressed in human SH-SY5Y cells assessed as increase in calcium flux by FLIPR relative to 10 uM nicotine
- Type: functional, cell-based
Quantity measured: %max (%)

Compound: Clc1ccncc1C1=CC2CNCC(C1)C2 (stereo not drawn)
Test system: Neuronal acetylcholine receptor; alpha3/beta4 (Homo sapiens, UniProt P30926+P32297)
Unit spec: %
Data value: 105
//
Compound: N#Cc1cncc(C2=C[C@H]3CNC[C@@H](C2)C3)c1
Test system: Neuronal acetylcholine receptor; alpha3/beta4 (Homo sapiens, UniProt P30926+P32297)
Unit spec: %
Data value: 136
//
Compound: COc1cncc(C2=CC3CNCC(C2)C3)c1 (stereo not drawn)
Test system: Neuronal acetylcholine receptor; alpha3/beta4 (Homo sapiens, UniProt P30926+P32297)
Unit spec: %
Data value: 145
//
Compound: C1=C(c2cccnc2)C[C@H]2CNC[C@@H]1C2
Test system: Neuronal acetylcholine receptor; alpha3/beta4 (Homo sapiens, UniProt P30926+P32297)
Unit spec: %
Data value: 142
//
Compound: Cc1ccc(C2=CC3CNCC(C2)C3)cn1 (stereo not drawn)
Test system: Neuronal acetylcholine receptor; alpha3/beta4 (Homo sapiens, UniProt P30926+P32297)
Unit spec: %
Data value: 149
//
Compound: COc1cncc(C2=CC3CC(C2)CN(C)C3)c1 (stereo not drawn)
Test system: Neuronal acetylcholine receptor; alpha3/beta4 (Homo sapiens, UniProt P30926+P32297)
Unit spec: %
Data value: 27
//
Compound: C1=C(c2cncnc2)CC2CNCC1C2 (stereo not drawn)
Test system: Neuronal acetylcholine receptor; alpha3/beta4 (Homo sapiens, UniProt P30926+P32297)
Unit spec: %
Data value: 147
//
Compound: C1=C(c2cncc(-c3ccccc3)c2)CC2CNCC1C2 (stereo not drawn)
Test system: Neuronal acetylcholine receptor; alpha3/beta4 (Homo sapiens, UniProt P30926+P32297)
Unit spec: %
Data value: 61
//
Compound: Clc1ccc(C2=CC3CNCC(C2)C3)cn1 (stereo not drawn)
Test system: Neuronal acetylcholine receptor; alpha3/beta4 (Homo sapiens, UniProt P30926+P32297)
Unit spec: %
Data value: 141
//
Compound: CN1C[C@@H]2C=C(c3cccnc3)C[C@@H](C2)C1
Test system: Neuronal acetylcholine receptor; alpha3/beta4 (Homo sapiens, UniProt P30926+P32297)
Unit spec: %
Data value: 25
//
Compound: Clc1ccc(C2=CC3CNCC(C2)C3)nn1 (stereo not drawn)
Test system: Neuronal acetylcholine receptor; alpha3/beta4 (Homo sapiens, UniProt P30926+P32297)
Unit spec: %
Data value: 135
//
Compound: C1=C(c2ccc(-c3ccccc3)nc2)CC2CNCC1C2 (stereo not drawn)
Test system: Neuronal acetylcholine receptor; alpha3/beta4 (Homo sapiens, UniProt P30926+P32297)
Unit spec: %
Data value: 17
//
Compound: CN1CC2C=C(c3cncc(Oc4ccccc4)c3)CC(C2)C1 (stereo not drawn)
Test system: Neuronal acetylcholine receptor; alpha3/beta4 (Homo sapiens, UniProt P30926+P32297)
Unit spec: %
Data value: 103

----------
- Test system: Neuronal acetylcholine receptor subunit alpha-7 (Homo sapiens, UniProt P36544)
- Procedure text: Displacement of [3H]epibatidine from human alpha7 nAChR expressed in human HEK/RIC3 cells
pKi: −log10 of the molar value.

Molecule: CN1CC2C=C(c3cncc(Cl)c3)CC(C2)C1 (stereo not drawn)
Relation: =
pKi: 5.10
//
Molecule: Fc1cncc(C2=CC3CNCC(C2)C3)c1 (stereo not drawn)
Relation: =
pKi: 8.44
//
Molecule: COc1ccc(C2=CC3CC(C2)CN(C)C3)cn1 (stereo not drawn)
Relation: <
pKi: 5.00
//
Molecule: CN1CC2C=C(c3cncc(F)c3)CC(C2)C1 (stereo not drawn)
Relation: =
pKi: 6.00
//
Molecule: CN1CC2C=C(c3cnccc3Cl)CC(C2)C1 (stereo not drawn)
Relation: =
pKi: 5.85
//
Molecule: C1=C(c2ccc(-c3ccccc3)nc2)CC2CNCC1C2 (stereo not drawn)
Relation: =
pKi: 6.23
//
Molecule: CC(C)Oc1cncc(C2=CC3CC(C2)CN(C)C3)c1 (stereo not drawn)
Relation: <
pKi: 5.00
//
Molecule: c1cncc(N2CC3CNCC(C3)C2)c1
Relation: =
pKi: 8.80
//
Molecule: CN1C[C@H]2C=C(c3cccnc3)C[C@H](C2)C1
Relation: =
pKi: 7.13
//
Molecule: N#Cc1cncc(C2=CC3CNCC(C2)C3)c1 (stereo not drawn)
Relation: =
pKi: 6.80
//
Molecule: COc1cc(C2=CC3CNCC(C2)C3)cnc1Cl (stereo not drawn)
Relation: =
pKi: 6.95
//
Molecule: C1=C(c2cnccn2)CC2CNCC1C2 (stereo not drawn)
Relation: =
pKi: 6.55
//
Molecule: Cc1ccc(C2=CC3CNCC(C2)C3)cn1 (stereo not drawn)
Relation: =
pKi: 7.10
